- assayedSystem: T1, recombinant human CD3 epsilon/delta heterodimer (human, UniProt P07766 23-126; P04234 22-105)
- T1 construct: Recombinant protein in solution (200-50 nM) in the Octet assay; also called hCD3 E/D; human CD3E/D
- T1 sequence (P07766 23-126, stated change not applied, chain 1 of 2): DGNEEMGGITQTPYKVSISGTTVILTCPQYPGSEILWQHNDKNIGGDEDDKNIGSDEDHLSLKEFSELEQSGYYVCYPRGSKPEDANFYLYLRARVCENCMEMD
- T1 sequence (P04234 22-105, stated change not applied, chain 2 of 2): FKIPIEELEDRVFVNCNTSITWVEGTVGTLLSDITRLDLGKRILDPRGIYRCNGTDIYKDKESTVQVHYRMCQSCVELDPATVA
- assayExplanation: Octet BLI, mAb on FAB2G sensor, hCD3 E/D 200-50 nM; R^2 0.97
pKd: −log10 of the molar value.

| binder | pKd |
| --- | --- |
| ABL-CD3-17 (antibody, V domains shown, Chimeric hybridoma mAb: human V, CH1, upper hinge; mouse middle hinge, CH2, CH3) VH: EVQLVESGGGLVQPGGSLRLSCAASGFTFSRYSINWVRQAPGKGLEWVSYISSSSSTIYYADSVKGRFTISRDNAKNSLYLQMNSLRDEDTAVYYCARERWELLYFDYWGQGTLVTVSS VL: NFMLTQPHSVSESPGKTVTISCTRSSGSIASKYVQWYQQRPGSSPTTVIYEDNQRPSGVPDRFSGSIDSSSNSASLTISGLKTEDEADYYCQSYDSNNRVFGGGTKLTVL | 6.99 |
| ABL-CD3-38 (antibody, V domains shown, Chimeric hybridoma mAb: human V, CH1, upper hinge; mouse middle hinge, CH2, CH3) VH: QGQLQQWGAGLLKPSETLSLTCAVYGGSFSGYYWSWIRLPPGKGLEWIGEINHSGNTNYNPSLKSRVTISVDTSKNQFSLQLSSVTAADTAVYYCAKEVEIWGYFDYWGQGTLVTVSS VL: QSVLTQPPSVSGAPGQRVTISCTGSSSNIGAGYDVHWYQQLPGTAPKLLIYGNSNRPSGVPDRFSGSKSGTSASLAITGLQAEDETDYNCQSYDSSLSGYVFGTGTKVTVL | 8.85 |
| ABL-CD3-35 (antibody, V domains shown, Chimeric hybridoma mAb: human V, CH1, upper hinge; mouse middle hinge, CH2, CH3) VH: EVQLVESGGGLVKPGGSLRLSCAASGFTFSSYSMNWVRQAPGKGLEWVSSVNSRGSYIYYADSVKGRFTISRDNAKDSLYLQMNSLRADDTAVYYCARDRRELLLDYWGQGTLVTVSS VL: SYELTQPPSVSVSPGQTARITCSGDALPKKYAYWYQQKSGQAPVLVIYEDSKRPSGIPERFSGSSSGTMATLTISGAQVEDEADYYCYSTDSSGNHCWVFGGGTKLTVL | 7.26 |
| ABL-CD3-14 (antibody, V domains shown, Chimeric hybridoma mAb: human V, CH1, upper hinge; mouse middle hinge, CH2, CH3) VH: EVQLVESGGGLVKPGGSLRLSCAASGFTCSSYSMTWVRQAPGKGLEWVSSISRRSSYIYYADSVKGRFTISRDNAKNSLYLQLNSLRAEDTAVYYCARERWELLYFDYWGQGTLVTVSS VL: NFMLTQPHSVSESPGKTVTISCTRSSGSIASNYVQWYQQRPGSSPTTVIYEDNQRPSGVPDRFSGSIDSSSNSASLTISGLKTEDEADYYCQSYDSSNRVFGGGTKLTVL | 7.89 |
